- assay.system: Protein Kinase C
- method.notes: Protein kinase C inhibitory activity (method of Kikkawa et al.; crude enzyme from rat brain, Histone Type II S phosphorylation)
- Type: biochemical
- condition.context: crude enzyme partially purified from rat brain; [γ-32P]ATP, 30° C., 3 minutes, pH 7.5
measured.endpoint: IC50 Protein Kinase C Inhibitory Activity (µg/mL)
Answer format: numeric, µg/mL implied, no suffix.

[Q] Which IC50 Protein Kinase C Inhibitory Activity is reported for this molecule? COc1c(C[C@@H](C)OC(=O)[C@@H]2CCCN2)c2c3c(C[C@@H](C)OC(=O)[C@@H]4CCCN4)c(OC)c(=O)c4c(O)cc(OC)c(c5c(OC)cc(O)c(c1=O)c52)c43
[A] 0.33

[Q] Next record, please: COc1c(C[C@@H](C)OC(=O)c2ccc([N+](=O)[O-])cc2)c2c3c(C[C@@H](C)OC(=O)c4ccc([N+](=O)[O-])cc4)c(OC)c(=O)c4c(O)cc(OC)c(c5c(OC)cc(O)c(c1=O)c52)c43 [Compound 30, 14,17-bis-O-p-nitrobenzoyl UCN-1028D]
[A] 0.11

[Q] Next record, please: COc1c(C[C@@H](C)OC(=O)CCCCCN)c2c3c(C[C@@H](C)OC(=O)CCCCCN)c(OC)c(=O)c4c(O)cc(OC)c(c5c(OC)cc(O)c(c1=O)c52)c43
[A] 0.08

[Q] Next record, please: COc1c(C[C@@H](C)OC(=O)C2CCCCC2)c2c3c(C[C@@H](C)OC(=O)C4CCCCC4)c(OC)c(=O)c4c(O)cc(OC)c(c5c(OC)cc(O)c(c1=O)c52)c43 [Compound 8, 14,17-di-O-cyclohexanecarbonyl UCN-1028D]
[A] 0.017

[Q] Next record, please: CC[C@H](C)[C@H](N)C(=O)O[C@H](C)Cc1c(OC)c(=O)c2c(O)cc(OC)c3c4c(OC)cc(O)c5c(=O)c(OC)c(C[C@@H](C)OC(=O)[C@@H](N)[C@@H](C)CC)c(c1c23)c54
[A] 0.15

[Q] Next record, please: COc1c(C[C@@H](C)OC(=O)c2ccc(OC(C)=O)cc2)c2c3c(C[C@@H](C)OC(=O)c4ccc(OC(C)=O)cc4)c(OC)c(=O)c4c(O)cc(OC)c(c5c(OC)cc(O)c(c1=O)c52)c43 [Compound 24, 14,17-bis-O-p-acetoxybenzoyl UCN-1028D]
[A] 0.082

[Q] Next record, please: CCCCCC(=O)O[C@H](C)Cc1c(OC)c(=O)c2c(O)cc(OC)c3c4c(OC)cc(O)c5c(=O)c(OC)c(C[C@@H](C)OC(=O)CCCCC)c(c1c23)c54 [Compound 3, 14,17-di-O-hexanoyl UCN-1028D]
[A] 0.035

[Q] Next record, please: COC(=O)c1ccc(C(=O)O[C@H](C)Cc2c(OC)c(=O)c3c(O)cc(OC)c4c5c(OC)cc(O)c6c(=O)c(OC)c(C[C@@H](C)OC(=O)c7ccc(C(=O)OC)cc7)c(c2c34)c65)cc1
[A] 0.084

[Q] Next record, please: COc1c(C[C@@H](C)OC(=O)Oc2ccccc2)c2c3c(C[C@@H](C)OC(=O)Oc4ccccc4)c(OC)c(=O)c4c(O)cc(OC)c(c5c(OC)cc(O)c(c1=O)c52)c43 [Compound 38, 14,17-bis-O-phenyloxycarbonyl UCN-1028D]
[A] 0.058

[Q] Next record, please: COc1c(C[C@@H](C)OC(=O)Cc2ccccc2)c2c3c(C[C@@H](C)OC(=O)Cc4ccccc4)c(OC)c(=O)c4c(O)cc(OC)c(c5c(OC)cc(O)c(c1=O)c52)c43 [Compound 9, 14,17-bis-O-phenylacetyl UCN-1028D]
[A] 0.054

[Q] Next record, please: COc1c(C[C@@H](C)OC(=O)c2ccc(C)cc2)c2c3c(C[C@@H](C)OC(=O)c4ccc(C)cc4)c(OC)c(=O)c4c(O)cc(OC)c(c5c(OC)cc(O)c(c1=O)c52)c43 [Compound 29, 14,17-bis-O-p-methylbenzoyl UCN-1028D]
[A] 0.06

[Q] Next record, please: CCCCCCCCCCCC(=O)O[C@H](C)Cc1c(OC)c(=O)c2c(O)cc(OC)c3c4c(OC)cc(O)c5c(=O)c(OC)c(C[C@@H](C)OC(=O)CCCCCCCCCCC)c(c1c23)c54 [Compound 6, 14,17-di-O-dodecanoyl UCN-1028D]
[A] 0.15

[Q] Next record, please: COc1c(C[C@@H](C)OS(C)(=O)=O)c2c3c(C[C@@H](C)OS(C)(=O)=O)c(OC)c(=O)c4c(O)cc(OC)c(c5c(OC)cc(O)c(c1=O)c52)c43 [Compound 39, 14,17-bis-O-methanesulfonyl UCN-1028D]
[A] 0.5

[Q] Next record, please: CN[C@@H](Cc1ccccc1)C(=O)O[C@H](C)Cc1c(OC)c(=O)c2c(O)cc(OC)c3c4c(OC)cc(O)c5c(=O)c(OC)c(C[C@@H](C)OC(=O)[C@H](Cc6ccccc6)NC)c(c1c23)c54
[A] 0.1

[Q] Next record, please: COc1c(C[C@@H](C)OC(=O)c2cccc3ccccc23)c2c3c(C[C@@H](C)OC(=O)c4cccc5ccccc45)c(OC)c(=O)c4c(O)cc(OC)c(c5c(OC)cc(O)c(c1=O)c52)c43 [Compound 31, 14,17-di-O-1-naphthoyl UCN-1028D]
[A] 0.19

[Q] Next record, please: COc1c(C[C@@H](C)O)c2c3c(C[C@@H](C)O)c(OC)c(=O)c4c(O)cc(OC)c(c5c(OC)cc(O)c(c1=O)c52)c43 [Compound 43, UCN-1028 iso-D]
[A] 0.74

[Q] Next record, please: COc1c(C[C@@H](C)OC(=O)c2ccc(C#N)cc2)c2c3c(C[C@@H](C)OC(=O)c4ccc(C#N)cc4)c(OC)c(=O)c4c(O)cc(OC)c(c5c(OC)cc(O)c(c1=O)c52)c43 [Compound 25, 14,17-bis-O-p-cyanobenzoyl UCN-1028D]
[A] 0.05
